# Assay Summary: Toxicity liver stage against HepG2, at 10uM
# Assay type: cell-based
# Design: test concentration 10 uM, cell line HepG2-A16-CD81EGFP
# Measurement Conditions: human, HepG2-A16-CD81EGFP cells; read-out: INHIBITION
Readout: cytotoxicity at 10 µM (%)

{"Compound": "Cc1cccc2ncn(C(C)Cn3cccn3)c(=O)c12 (centres undefined)", "Meas Value": -4.4}
{"Compound": "O=C(NCC(O)COc1ccccc1)Nc1nncs1 (centres undefined)", "Meas Value": 0.555}
{"Compound": "O=C(CCNC1(c2nccs2)CCCC1)N1CCOCC1", "Meas Value": 0.79}
{"Compound": "Cc1cc(C)n(CCC2CC(=O)Nc3cc(O)c(C)cc32)n1 (centres undefined)", "Meas Value": -1.74}

###

# Assay Summary: Toxicity liver stage against HepG2, at 10uM
# Format: cell-based
# Set-up: test concentration 10 uM, cell line HepG2-A16-CD81EGFP
# Measurement Conditions: human, HepG2-A16-CD81EGFP cells; read-out: INHIBITION
Readout: cytotoxicity at 10 µM

{"Compound String": "Fc1ccc(CN2CCC(c3noc(-c4cnccn4)n3)CC2)cc1F", "Meas Value": "2.35%"}
{"Compound String": "CC(C)CCN1N=C(C(=O)N2CCCCCC2)S(=O)(=O)c2ccccc21", "Meas Value": "11.8%"}
{"Compound String": "c1csc(N2CCN(Cc3cc4n(n3)CCNC4)CC2)n1", "Meas Value": "-3.59%"}

###

# Assay Summary: Toxicity liver stage against HepG2, at 10uM
# Format: cell-based
# Parameters: test concentration 10 uM, cell line HepG2-A16-CD81EGFP
# Measurement Conditions: human, HepG2-A16-CD81EGFP cells; read-out: INHIBITION

{"Compound String": "CCOC(=O)C1CCN(c2cc(C(=O)N3CCOCC3)nc(C)n2)CC1", "cytotoxicity at 10 µM (%)": -1.07}
{"Compound String": "CCCc1cc(C(=O)N[C@@H](CO)[C@@H](O)c2ccccc2)n(C)n1", "cytotoxicity at 10 µM (%)": 4.76}
{"Compound String": "CC(=O)N[C@@H]1CN(C(=O)c2cc3ccccc3[nH]2)C[C@H]1c1ccc(C)o1", "cytotoxicity at 10 µM (%)": -10.2}
{"Compound String": "FC(F)(F)c1ccnc(N2CCC(c3nccn3CC3CC3)CC2)n1", "cytotoxicity at 10 µM (%)": 3.03}

###

# Assay Summary: Toxicity liver stage against HepG2, at 10uM
# Assay type: cell-based
# Set-up: test concentration 10 uM, cell line HepG2-A16-CD81EGFP
# Measurement Conditions: human, HepG2-A16-CD81EGFP cells; read-out: INHIBITION

{"Compound": "CN(C(=O)CN(Cc1cccc(O)c1)C1CCC(O)CC1)C1CC1 (stereo unspecified)", "cytotoxicity at 10 µM, %": -0.586}
{"Compound": "Cc1ccc(CN2CCOC3(CCN(C(=O)C4CC=CC4)CC3)C2)cc1", "cytotoxicity at 10 µM, %": 15.5}
{"Compound": "Cc1ccc(C2CN(C(=O)c3ccn(C)c(=O)c3)CCO2)nc1 (stereo unspecified)", "cytotoxicity at 10 µM, %": -17}
{"Compound": "O=C(CN1CCC[C@@H]1C(=O)O)NCCOc1cccc(C(F)(F)F)c1", "cytotoxicity at 10 µM, %": -1.7}
{"Compound": "Cc1nc(CN2CCCC2C(=O)OCc2ccccc2)oc1C (stereo unspecified)", "cytotoxicity at 10 µM, %": -1.86}
{"Compound": "CNC(=O)N1CCc2cc(C(=O)NCC3CC3)c(NC(C)C)nc2CC1", "cytotoxicity at 10 µM, %": 2.02}
{"Compound": "CC(=O)N1CCc2[nH]cnc2C12CCN(CC1CCOC1)CC2 (stereo unspecified)", "cytotoxicity at 10 µM, %": -8.46}
{"Compound": "O=C([C@@H]1C[C@@H]2CCN(Cc3ccoc3)C[C@H]2O1)N1CCCC1", "cytotoxicity at 10 µM, %": -101}
{"Compound": "O=C(NCc1cncc2c1CCN(CC1CCOC1)C2)c1ccco1 (stereo unspecified)", "cytotoxicity at 10 µM, %": -9.55}
{"Compound": "Cn1c(C2CC2)nc2c1CCN(Cc1nc(Cc3ccccc3)no1)C2", "cytotoxicity at 10 µM, %": -6.37}
{"Compound": "COc1cc(S(=O)(=O)N2CCc3ccc(Cl)cc32)cc(C(=O)O)c1OC", "cytotoxicity at 10 µM, %": -1.34}

###

Measured cytotoxicity at 10 µM, listed per entry.
# Assay Summary: Toxicity liver stage against HepG2, at 10uM
# Format: cell-based
# Parameters: test concentration 10 uM, cell line HepG2-A16-CD81EGFP
# Measurement Conditions: human, HepG2-A16-CD81EGFP cells; read-out: INHIBITION

{"Compound": "CCC(C)(C)n1nnnc1C(c1cccs1)N1CCc2ccccc21 (configuration not stated)", "cytotoxicity at 10 µM [%]": 8.67}
{"Compound": "CCc1ccc2occ(CC(=O)N3CCC4(CCCN(C)C4=O)C3)c2c1 (configuration not stated)", "cytotoxicity at 10 µM [%]": -14.5}
{"Compound": "Cc1cc(C(=O)N2CCC(Nc3cccnc3)CC2)c(C)s1", "cytotoxicity at 10 µM [%]": -141}
{"Compound": "CC(=O)Nc1nc(C2CCN(C(=O)C3CCC3)CC2)cs1", "cytotoxicity at 10 µM [%]": -2.36}
{"Compound": "N#Cc1c(N)nc2c(c1-c1c[nH]nc1C1CCCCC1)CC(N)CC2 (configuration not stated)", "cytotoxicity at 10 µM [%]": -3.06}
{"Compound": "CCc1nc(CNc2nc3c(s2)c(C)nn3C)cs1", "cytotoxicity at 10 µM [%]": -72}
{"Compound": "CC(C)CNC(=O)N1CCC2(CC1)OC(C(N)=O)Cn1ccnc12 (configuration not stated)", "cytotoxicity at 10 µM [%]": -103}

###

# Assay Summary: Toxicity liver stage against HepG2, at 10uM
# Format: cell-based
# Design: test concentration 10 uM, cell line HepG2-A16-CD81EGFP
# Measurement Conditions: human, HepG2-A16-CD81EGFP cells; read-out: INHIBITION
Measured cytotoxicity at 10 µM, listed per entry.

{"Compound": "Cc1ccc(CN(Cc2ccccn2)C(=O)C2CCCCCN2C)s1 (configuration not stated)", "cytotoxicity at 10 µM / %": -20.2}
{"Compound": "Cc1cnn(CC2CCCN2C(=O)c2sccc2-n2cnnn2)c1 (configuration not stated)", "cytotoxicity at 10 µM / %": -15}
{"Compound": "CC(NS(=O)(=O)CC1(C#N)CCCC1)c1cccc(-n2cccn2)c1 (configuration not stated)", "cytotoxicity at 10 µM / %": 3.15}
{"Compound": "CC(=O)Nc1cccc(-c2ccccc2CCN)c1", "cytotoxicity at 10 µM / %": -5.85}
{"Compound": "CCN1CCOC(CNCc2ccccc2OCc2cccnc2)C1 (configuration not stated)", "cytotoxicity at 10 µM / %": -13.1}
{"Compound": "OCc1ccc(CNc2ccccc2CN2CCC(O)CC2)o1", "cytotoxicity at 10 µM / %": 1.85}
{"Compound": "O=c1c2cnc(N3CCCCC3)nc2ccn1-c1ccccc1", "cytotoxicity at 10 µM / %": -10.1}

###

Measured cytotoxicity at 10 µM, listed per entry.
# Assay Summary: Toxicity liver stage against HepG2, at 10uM
# Assay type: cell-based
# Parameters: test concentration 10 uM, cell line HepG2-A16-CD81EGFP
# Measurement Conditions: human, HepG2-A16-CD81EGFP cells; read-out: INHIBITION
Readout: cytotoxicity at 10 µM

{"Compound": "CCCc1n[nH]c(C2CN(C(=O)c3ccco3)CCO2)n1 (stereo not given)", "Readout": "cytotoxicity at 10 µM", "Meas Value": "-2.7%"}
{"Compound": "COc1cc2ccn(CCS(C)(=O)=O)c(=O)c2cc1F", "Readout": "cytotoxicity at 10 µM", "Meas Value": "18.5%"}
{"Compound": "CCCOCCN1CCN(c2ncnc3[nH]ccc23)CC1", "Readout": "cytotoxicity at 10 µM", "Meas Value": "-6.67%"}
{"Compound": "COc1ncc(C(=O)N(Cc2cnn(C)c2)C(C)C)cn1", "Readout": "cytotoxicity at 10 µM", "Meas Value": "4.23%"}
{"Compound": "CCc1cc(N2CCC(NC3CN4CCC3CC4)CC2)nc(N(C)C)n1 (stereo not given)", "Readout": "cytotoxicity at 10 µM", "Meas Value": "-2.12%"}
{"Compound": "Cc1nc(N2CCOCC2)nc2c1CCN(C(=O)C1CC1)CC2", "Readout": "cytotoxicity at 10 µM", "Meas Value": "2.23%"}
{"Compound": "COCCn1ccnc1C1CCCN(C(=O)CSc2nnc(C)o2)C1 (stereo not given)", "Readout": "cytotoxicity at 10 µM", "Meas Value": "-4.3%"}
{"Compound": "O=C1[C@@H]2CN(c3ncc(Cl)cc3F)C[C@]2(C(=O)O)CN1CC1CC1", "Readout": "cytotoxicity at 10 µM", "Meas Value": "-0.33%"}
{"Compound": "CCc1noc(CN(C)Cc2cc3ccc(Cl)cc3[nH]c2=O)n1", "Readout": "cytotoxicity at 10 µM", "Meas Value": "4.92%"}
{"Compound": "CC(C)NC(=O)C1CN(C(=O)c2ccc(F)cc2)CC12CCOCC2 (stereo not given)", "Readout": "cytotoxicity at 10 µM", "Meas Value": "1.08%"}
{"Compound": "CCC(=O)NCCCn1c(-c2cccnc2C)cc2cccnc21", "Readout": "cytotoxicity at 10 µM", "Meas Value": "3.84%"}
{"Compound": "Fc1cnc(N2CC[C@@H]3O[C@H](COCc4ccccn4)CC[C@@H]32)nc1", "Readout": "cytotoxicity at 10 µM", "Meas Value": "2.9%"}
{"Compound": "CCN1CC(C(=O)N2CC(Oc3ccccc3Cl)C2)CC1=O (stereo not given)", "Readout": "cytotoxicity at 10 µM", "Meas Value": "-2.83%"}
{"Compound": "COc1ncccc1NC(=O)N(CC(C)C)C1CC1", "Readout": "cytotoxicity at 10 µM", "Meas Value": "-0.874%"}
{"Compound": "Cc1nccn1C1CCCN(C(=O)c2ccc3cc[nH]c3c2)C1 (stereo not given)", "Readout": "cytotoxicity at 10 µM", "Meas Value": "-9.69%"}
{"Compound": "Cc1cc(C(=O)NC2CCc3c(ccc(=O)n3CCN(C)C)C2)no1 (stereo not given)", "Readout": "cytotoxicity at 10 µM", "Meas Value": "-0.58%"}
{"Compound": "CCC(CC)C(=O)N1CCOC2(COCCN(CC(=O)NC)C2)C1 (stereo not given)", "Readout": "cytotoxicity at 10 µM", "Meas Value": "2.35%"}
{"Compound": "CCN1CCN(CCNC(=O)c2ccn(-c3ccc(F)cc3)n2)CC1", "Readout": "cytotoxicity at 10 µM", "Meas Value": "-26.2%"}
{"Compound": "Cc1ccccc1-c1cncc(C2CCN(C(=O)CN(C)C)CC2)n1", "Readout": "cytotoxicity at 10 µM", "Meas Value": "3.88%"}
{"Compound": "CN(C)C(=O)CCCS(=O)(=O)Cc1cc(Cl)c2c(c1)OCO2", "Readout": "cytotoxicity at 10 µM", "Meas Value": "-4.52%"}
{"Compound": "Cc1ncsc1C(=O)N(Cc1cccs1)C1CC1", "Readout": "cytotoxicity at 10 µM", "Meas Value": "-6.13%"}
{"Compound": "CCS(=O)(=O)N1Cc2ccnn2CC(c2nc(C)no2)C1 (stereo not given)", "Readout": "cytotoxicity at 10 µM", "Meas Value": "6.86%"}
{"Compound": "CC(NC(=O)NCCCc1n[nH]c(N)c1C#N)c1ccc(F)c(F)c1 (stereo not given)", "Readout": "cytotoxicity at 10 µM", "Meas Value": "-10.2%"}
{"Compound": "CC(C)N(C)S(=O)(=O)N(C)Cc1ccc2c(c1)OCO2", "Readout": "cytotoxicity at 10 µM", "Meas Value": "-0.0868%"}
{"Compound": "C[C@@H]1CN(C(=O)CCc2nncn2C)CC[C@@]1(O)C1CCC1", "Readout": "cytotoxicity at 10 µM", "Meas Value": "-6.65%"}
{"Compound": "CNC(=O)[C@H]1C[C@H]2OCC[C@H]2N(CCOc2ccc(Cl)cc2)C1", "Readout": "cytotoxicity at 10 µM", "Meas Value": "-104%"}
{"Compound": "COCCN(Cc1sccc1C)C(=O)COc1ccccc1O", "Readout": "cytotoxicity at 10 µM", "Meas Value": "-145%"}
{"Compound": "CCn1nc(C)c2nc(C(C)C)nc(NCCCn3cccn3)c21", "Readout": "cytotoxicity at 10 µM", "Meas Value": "8.71%"}
{"Compound": "O=C(C1CCOC1)N1C[C@@H]2CCN(C(=O)c3cscn3)[C@@H]2C1 (stereo not given in full)", "Readout": "cytotoxicity at 10 µM", "Meas Value": "-2.85%"}
{"Compound": "CC(C1CCN(Cc2cnn(C)c2C2CC2)CC1)N1CCN(C)CC1 (stereo not given)", "Readout": "cytotoxicity at 10 µM", "Meas Value": "-11.9%"}
